B1: HDV Ribozyme (parent)
chain: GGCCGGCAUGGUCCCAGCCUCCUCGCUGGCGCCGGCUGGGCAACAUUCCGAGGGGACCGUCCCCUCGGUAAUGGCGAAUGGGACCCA

Variants of: B1
run.description: self-cleavage, relative activity (ratio to wild type); higher = more cleavage; co-transcriptional
Short version: self-cleavage at least 0.3 is 1.0, less is 0.0.

>>> df
                     macromolecule_sequence  category_label
0  GGCCGGCAUGGUCCCAGCCUCCUCGCUGGCGCCGGCUGGGCAACGAUCCGAGGGGACCGUCCCCUCGGUAAUGGCGAAUGGGACCCA             1.0
1  GGCCGGCAUGGUCCCACCCUCCUCGCUGGCGCCGGCUGGGCAACAUUCCGAGGGGACCGUCCCCUCGGUAAUGGCGAAUAGGACCCA             0.0

// query Check this variant for self-cleavage at or above 0.3: "GGCCGGCAUGGUCCCAGCCUCCUCGCUGGGGCCGGCUGGGCAACAUUCCGAGGGGACCGUCCCCUCGGUAAUGGCGAAUGGGACGCA"
// result 0.0

// query Follow-up item: "GGCCGGCAUGGUCCCAGCCUCCUGGCUGGCGCCGGCUGGGCAACAUUCCGAGGGGACCGUCCCCUCGGUAAUGGCGAAUAGGACCCA"
// result 0.0
